Measured P. aeruginosa MIC50 of individual entries
System: Pseudomonas aeruginosa ATCC 27853
measurement.protocol: MIC assay (planktonic growth inhibition, OD600)
Format: cell-based, P. aeruginosa
experimental.parameters: minimal concentration reducing final OD600 by 50%; 24 h at 37° C.
Report only the number, with the unit mM understood.

>>> reported_result("O=S(=O)(Cc1ccccc1)SCc1ccccc1 [Di-benzyl thiosulfonate]")
4
>>> reported_result("CCCSS(=O)(=O)c1ccc(C)cc1 [S-propyl-4-methylbenzene thiosulfonate]")
0.06
>>> reported_result("Cc1ccc(S[S+]([O-])c2ccc(C)cc2)cc1 (centres unmarked) [Bis (p-tolyl) thiosulfinate]")
0.125
>>> reported_result("[O-][S+](Cc1ccccc1)SCc1ccccc1 [D-benzyl thiosulfinate, Di-benzyl thiosulfinate]")
0.06

Ask: Please report P. aeruginosa MIC50 for the following molecule: CC(C)S[S+]([O-])C(C)C (centres unmarked) [Di-isopropyl thiosulfinate]
Reply: 2

Ask: Please report P. aeruginosa MIC50 for the following molecule: CSS(C)(=O)=O [Di-methyl thiosulfonate, methyl methane thiosulfonate]
Reply: 0.25

Ask: Please report P. aeruginosa MIC50 for the following molecule: [O-][S+](Sc1ccccc1)c1ccccc1 (centres unmarked) [Di-phenyl thiosulfinate]
Reply: 1
